Experiment: total protein half-life in vivo (active degradation + dilution); higher = more stable protein
Conditions: E. coli NCM3722 delta-hslV; growth: N-lim chemostat; doubling time 6 h
Returns one of condition met or condition not met; condition met when total protein half-life in vivo is >= 5 h.

Consider the following illustrative entries.
BIOSEQUENCE | CAT
MDMDLNNRLTEDETLEQAYDIFLELAADNLDPADVLLFNLQFEERGGAELFDPAEDWQEHVDFDLNPDFFAEVVIGLADSEDGEINDVFARILLCREKDHKLCHIIWRE [P0A8L7] | condition not met
MKKILLMLSLLFFTTAGFSEVSDTLVTGGYDKQAMSDAIKHARKETDKFIEVMNKKDADTFAVKAPITDHGRTEHFWLTDVTYSNGMFIGVISNDPGIVTNVEYGQEWKIKKEDISDWMYTRGDKIYGGYTIDPLLVTYPKEEADELRAKLVR | condition not met
MQILADLLNTIPAIDSTAMSRAQRHIDGLLKPVGSLGKLEVLAIQLAGMPGLNGIPHVGKKAVLVMCADHGVWEEGVAISPKEVTAIQAENMTRGTTGVCVLAEQAGANVHVIDVGIDTAEPIPGLINMRVARGSGNIASAPAMSRRQAEKLLLDVICYTQELAKNGVTLFGVGELGMANTTPAAAIVSTITGRDPEEVVGIGANLPTDKLANKIDVVRRAITLNQPNPQDGVDVLAKVGGFDLVGIAGVMLGAASCGLPVLLDGFLSYAAALAACQMSPAIKPYLIPSHLSAEKGARIALSHLGLEPYLNMEMRLGEGSGAALAMPIIEAACAIYNNMGELAASNIVLPGNTTSDLNS | condition not met
MTTRVIALDLDGTLLTPKKTLLPSSIEALARAREAGYQLIIVTGRHHVAIHPFYQALALDTPAICCNGTYLYDYHAKTVLEADPMPVIKALQLIEMLNEHHIHGLMYVDDAMVYEHPTGHVIRTSNWAQTLPPEQRPTFTQVASLAETAQQVNAVWKFALTHDDLPQLQHFGKHVEHELGLECEWSWHDQVDIARGGNSKGKRLTKWVEAQGWSMENVVAFGDNFNDISMLEAAGTGVAMGNADDAVKARANIVIGDNTTDSIAQFIYSHLI | condition not met

Kindly consider the entry below.
Query :: In plain terms: is recorded total protein half-life in vivo at least 5 h for `MAGNTIGQLFRVTTFGESHGLALGCIVDGVPPGIPLTEADLQHDLDRRRPGTSRYTTQRREPDQVKILSGVFEGVTTGTSIGLLIENTDQRSQDYSAIKDVFRPGHADYTYEQKYGLRDYRGGGRSSARETAMRVAAGAIAKKYLAEKFGIEIRGCLTQMGDIPLDIKDWSQVEQNPFFCPDPDKIDALDELMRALKKEGDSIGAKVTVVASGVPAGLGEPVFDRLDADIAHALMSINAVKGVEIGDGFDVVALRGSQNRDEITKDGFQSNHAGGILGGISSGQQIIAHMALKPTSSITVPGRTINRFGEEVEMITKGRHDPCVGIRAVPIAEAMLAIVLMDHLLRQRAQNADVKTDIPRW` ?
Result :: condition met

###

Assay: total protein half-life in vivo (active degradation + dilution); higher = more stable protein
Conditions: E. coli NCM3722 delta-smpB; growth: N-lim chemostat; doubling time 6 h
PARAMETER: total protein half-life in vivo
Reply with the number and its unit after it.

total protein half-life in vivo reported for this sequence `MDKSKRHLAWWVVGLLAVAAIVAWWLLRPAGVPEGFAVSNGRIEATEVDIASKIAGRIDTILVKEGKFVREGEVLAKMDTRVLQEQRLEAIAQIKEAQSAVAAAQALLEQRQSETRAAQSLVNQRQAELDSVAKRHTRSRSLAQRGAISAQQLDDDRAAAESARAALESAKAQVSASKAAIEAARTNIIQAQTRVEAAQATERRIAADIDDSELKAPRDGRVQYRVAEPGEVLAAGGRVLNMVDLSDVYMTFFLPTEQAGTLKLGGEARLILDAAPDLRIPATISFVASVAQFTPKTVETSDERLKLMFRVKARIPPELLQQHLEYVKTGLPGVAWVRVNEELPWPDDLVVRLPQ` : 5.93 h
